system: Pseudomonas aeruginosa; experiment: Antibacterial activity against Pseudomonas aeruginosa ATCC 27853 a after 24 hrs by micro broth dilution assay; assay type: functional; conditions: ATCC 27853, 24 h
Listed next: entries and their corresponding MIC.

Example molecules with recorded MIC:
O=c1c2ccc(F)cc2ncn1CCCCCCCCCCn1cnc([N+](=O)[O-])c1 : 80 µM
O=c1c2ccc(Cl)cc2ncn1CCCCBr : > 1620 µM
Cc1ncc([N+](=O)[O-])n1CCCCn1cnc2cc(Cl)ccc2c1=O : > 1420 µM
O=c1c2ccc(Cl)cc2ncn1CCCCCn1cnc([N+](=O)[O-])c1 : 350 µM

Lookup: Reported MIC, molecule O=c1c2ccc(Cl)cc2ncn1CCCCn1cnc([N+](=O)[O-])c1 : ____
Found: 740 µM

Lookup: For Cc1ncc([N+](=O)[O-])n1CCCCn1cnc2cc(F)ccc2c1=O , what is its reported MIC?
Found: > 1480 µM

Lookup: Which MIC value belongs to O=c1c2ccc(F)cc2ncn1CCCCCCBr ?
Found: > 1560 µM

Lookup: So what's the measured MIC for this one? O=c1c2ccc(F)cc2ncn1CCn1cncn1
Found: 30 µM

Lookup: Could you tell me which MIC is on file for OC(Cn1cncn1)(Cn1cncn1)c1ccc(F)cc1F ?
Found: > 1670 µM
